# ASSAY OVERVIEW: self-splicing fitness, log relative to wild type (ln ratio); higher = more splicing; Tetrahymena group I intron in knt gene, E. coli kanamycin selection, DiMSum; sequences stand for … in CUCUCU…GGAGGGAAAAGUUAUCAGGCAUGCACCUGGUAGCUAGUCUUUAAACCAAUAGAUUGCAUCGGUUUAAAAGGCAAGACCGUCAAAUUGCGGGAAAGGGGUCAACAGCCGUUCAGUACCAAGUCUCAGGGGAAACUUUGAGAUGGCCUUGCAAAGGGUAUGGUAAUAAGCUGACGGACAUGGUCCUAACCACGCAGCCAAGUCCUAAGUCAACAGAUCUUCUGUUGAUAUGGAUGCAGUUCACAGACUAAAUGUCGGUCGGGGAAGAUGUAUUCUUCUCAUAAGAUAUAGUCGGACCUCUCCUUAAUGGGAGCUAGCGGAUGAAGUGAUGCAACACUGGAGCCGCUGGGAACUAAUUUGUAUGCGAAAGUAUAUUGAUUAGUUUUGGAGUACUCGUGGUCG;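 further: selection with 25 µg/mL kanamycin versus none on LB agar overnight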
# ASSAY CONTEXT: 30 °C
MEASUREMENT KIND: self-splicing fitness (ln)

BIOPOLYMER SEQUENCE | MEASUREMENT KIND | ASSAY VALUE
UUCAAGCAAUAUUACGAGCC | self-splicing fitness (ln) | -2.64
GUUGAGCAAUAUUACGCGUC | self-splicing fitness (ln) | -1.59
AACUAGCAAUAUUACGGCUA | self-splicing fitness (ln) | -1.08
AUUGAGCAAUAUUACGCCUG | self-splicing fitness (ln) | -2.27

====

# ASSAY OVERVIEW: self-splicing fitness, log relative to wild type (ln ratio); higher = more splicing; Tetrahymena group I intron in knt gene, E. coli kanamycin selection, DiMSum; sequences stand for … in CUCUCU…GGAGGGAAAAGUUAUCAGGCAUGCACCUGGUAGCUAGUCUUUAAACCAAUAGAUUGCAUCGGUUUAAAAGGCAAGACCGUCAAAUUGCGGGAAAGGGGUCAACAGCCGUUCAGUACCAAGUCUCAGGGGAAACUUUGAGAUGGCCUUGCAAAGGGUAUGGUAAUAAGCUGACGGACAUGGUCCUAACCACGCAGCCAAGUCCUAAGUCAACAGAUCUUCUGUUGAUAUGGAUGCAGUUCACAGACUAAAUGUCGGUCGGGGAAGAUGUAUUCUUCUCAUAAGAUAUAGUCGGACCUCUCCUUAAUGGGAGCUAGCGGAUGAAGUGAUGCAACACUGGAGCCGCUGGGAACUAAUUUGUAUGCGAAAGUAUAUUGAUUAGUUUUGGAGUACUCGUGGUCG
# ASSAY CONTEXT: 30 °C

BIOPOLYMER SEQUENCE | self-splicing fitness (ln)
AUUGAGCAAUAUUACGAUCC | -1.32
AUAAAGCAAUAUUACGGUGA | -0.436
CUCAAGCAAUAUUACGCGGC | -3.21
GUUUAGCAAUAUUACGUGGC | -0.884
AUUAAGCAAUAUUACGAGAC | -3.39
AGCAAGCAAUAUUACGGGGU | -2.45
AUCCAGCAAUAUUACGAGUG | -1.66
AAAUAGCAAUAUUACGUCCU | -0.0903
GGACAGCAAUAUUACGGUUG | -1.41
UUUUAGCAAUAUUACGAAGU | -3.02
UGGAAGCAAUAUUACGAUGU | -1.75
CUCCAGCAAUAUUACGAAGC | -3.5
ACAGAGCAAUAUUACGAGAA | -2.03
ACGUAGCAAUAUUACGUGUG | -3.26
GCCUAGCAAUAUUACGUGGG | -4.52

====

# ASSAY OVERVIEW: self-splicing fitness, log relative to wild type (ln ratio); higher = more splicing; Tetrahymena group I intron in knt gene, E. coli kanamycin selection, DiMSum; sequences stand for … in CUCUCU…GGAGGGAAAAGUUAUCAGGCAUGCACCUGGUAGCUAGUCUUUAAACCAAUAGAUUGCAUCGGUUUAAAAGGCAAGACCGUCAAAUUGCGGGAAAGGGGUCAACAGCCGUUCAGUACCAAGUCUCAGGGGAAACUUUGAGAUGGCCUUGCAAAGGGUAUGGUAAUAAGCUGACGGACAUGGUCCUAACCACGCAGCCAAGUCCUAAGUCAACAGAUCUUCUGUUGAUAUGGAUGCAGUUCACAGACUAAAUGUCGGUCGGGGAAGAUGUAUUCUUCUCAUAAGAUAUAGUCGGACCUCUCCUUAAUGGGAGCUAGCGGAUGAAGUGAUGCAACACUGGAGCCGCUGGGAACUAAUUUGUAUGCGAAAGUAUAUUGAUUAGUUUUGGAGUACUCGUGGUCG
# ASSAY CONTEXT: 37 °C
Quick list: self-splicing fitness (ln) per entry.

BIOPOLYMER SEQUENCE | self-splicing fitness (ln)
GGAUAGCAAUAUUACGCGAU | -2.91
CAACAGCAAUAUUACGUGAU | -2.19
UGCAAGCAAUAUUACGUACU | 0.0223
CCCGAGCAAUAUUACGUCGC | -2.29
AUUGAGCAAUAUUACGGUUA | -2.57
AAGCAGCAAUAUUACGGGUA | -2.31
GACUAGCAAUAUUACGGGGA | -0.995
GUGUAGCAAUAUUACGGUUA | -0.936
AUCAAGCAAUAUUACGUGGU | -3.11
AAACAGCAAUAUUACGCCGA | -1.35
AUAUAGCAAUAUUACGCGUA | -0.256
GGCCAGCAAUAUUACGGUAA | 0.0838
UAAUAGCAAUAUUACGCACG | 0.193
AUCAAGCAAUAUUACGCAUG | -1.56
UGAGAGCAAUAUUACGGAUC | -2.32
ACUUAGCAAUAUUACGAGCC | -1.26
AACUAGCAAUAUUACGGCUA | -1.22
CGACAGCAAUAUUACGAACG | -0.117
GUCCAGCAAUAUUACGGGAC | -2.94
CUUAAGCAAUAUUACGACGC | -2.22
GCGUAGCAAUAUUACGCUCC | -0.401
GUCGAGCAAUAUUACGUCUA | -0.965

====

# ASSAY OVERVIEW: self-splicing fitness, log relative to wild type (ln ratio); higher = more splicing; Tetrahymena group I intron in knt gene, E. coli kanamycin selection, DiMSum; sequences stand for … in CUCUCU…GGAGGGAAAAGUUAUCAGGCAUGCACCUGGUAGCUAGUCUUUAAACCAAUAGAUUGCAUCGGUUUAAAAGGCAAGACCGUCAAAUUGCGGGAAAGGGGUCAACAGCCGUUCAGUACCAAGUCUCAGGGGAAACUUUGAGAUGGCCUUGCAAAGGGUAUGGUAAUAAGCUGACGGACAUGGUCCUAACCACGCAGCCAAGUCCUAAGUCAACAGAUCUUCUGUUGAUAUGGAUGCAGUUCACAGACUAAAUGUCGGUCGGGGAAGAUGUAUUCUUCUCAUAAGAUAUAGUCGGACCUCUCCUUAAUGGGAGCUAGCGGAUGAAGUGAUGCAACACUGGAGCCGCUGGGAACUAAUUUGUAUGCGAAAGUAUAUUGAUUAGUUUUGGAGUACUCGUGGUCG
# ASSAY CONTEXT: 30 °C
Quick list: self-splicing fitness (ln) per entry.

BIOPOLYMER SEQUENCE | self-splicing fitness (ln)
AUUCAGCAAUAUUACGUGAC | -3.05
GCACAGCAAUAUUACGGUAU | -0.511
ACGCAGCAAUAUUACGCCAU | -2.86
GCCCAGCAAUAUUACGAUUG | -2.63
ACGGAGCAAUAUUACGCCUC | -2.43
AUAGAGCAAUAUUACGGAGG | -3.24
GGAAAGCAAUAUUACGGAGU | -3.76
GUUCAGCAAUAUUACGUUCG | -0.684
UUCAAGCAAUAUUACGGCUU | -2.58
AUCGAGCAAUAUUACGUUAC | -3.04
CCAUAGCAAUAUUACGCCUA | -2.85
CAACAGCAAUAUUACGUAAU | -2.46
UAACAGCAAUAUUACGAAAA | -3.2
GUUAAGCAAUAUUACGGCGU | -0.0268
GCAAAGCAAUAUUACGUGUA | -0.807
CUCCAGCAAUAUUACGCUUU | -2.78
CUUCAGCAAUAUUACGCCUG | -0.748
GGCGAGCAAUAUUACGACUG | -0.978
UGUGAGCAAUAUUACGGAGG | -3.33
GCGAAGCAAUAUUACGGUCG | -3.65
GAACAGCAAUAUUACGAGCG | -1.94
AGAUAGCAAUAUUACGUCCA | 0.498
GAUGAGCAAUAUUACGUAAA | -3.81
UGAGAGCAAUAUUACGAGCG | -1.84
CAUUAGCAAUAUUACGUGGG | -3.46
UAGCAGCAAUAUUACGAUCA | 0.112
UCGUAGCAAUAUUACGAGAU | -4.2
UCGAAGCAAUAUUACGACAU | -3.76
